- system: bovine cardiac myofibrils (full-length cardiac myosin ATPase in the native sarcomere) (Bos taurus (Bovine), UniProt Q9BE39)
- Sequence (Q9BE39 whole entry): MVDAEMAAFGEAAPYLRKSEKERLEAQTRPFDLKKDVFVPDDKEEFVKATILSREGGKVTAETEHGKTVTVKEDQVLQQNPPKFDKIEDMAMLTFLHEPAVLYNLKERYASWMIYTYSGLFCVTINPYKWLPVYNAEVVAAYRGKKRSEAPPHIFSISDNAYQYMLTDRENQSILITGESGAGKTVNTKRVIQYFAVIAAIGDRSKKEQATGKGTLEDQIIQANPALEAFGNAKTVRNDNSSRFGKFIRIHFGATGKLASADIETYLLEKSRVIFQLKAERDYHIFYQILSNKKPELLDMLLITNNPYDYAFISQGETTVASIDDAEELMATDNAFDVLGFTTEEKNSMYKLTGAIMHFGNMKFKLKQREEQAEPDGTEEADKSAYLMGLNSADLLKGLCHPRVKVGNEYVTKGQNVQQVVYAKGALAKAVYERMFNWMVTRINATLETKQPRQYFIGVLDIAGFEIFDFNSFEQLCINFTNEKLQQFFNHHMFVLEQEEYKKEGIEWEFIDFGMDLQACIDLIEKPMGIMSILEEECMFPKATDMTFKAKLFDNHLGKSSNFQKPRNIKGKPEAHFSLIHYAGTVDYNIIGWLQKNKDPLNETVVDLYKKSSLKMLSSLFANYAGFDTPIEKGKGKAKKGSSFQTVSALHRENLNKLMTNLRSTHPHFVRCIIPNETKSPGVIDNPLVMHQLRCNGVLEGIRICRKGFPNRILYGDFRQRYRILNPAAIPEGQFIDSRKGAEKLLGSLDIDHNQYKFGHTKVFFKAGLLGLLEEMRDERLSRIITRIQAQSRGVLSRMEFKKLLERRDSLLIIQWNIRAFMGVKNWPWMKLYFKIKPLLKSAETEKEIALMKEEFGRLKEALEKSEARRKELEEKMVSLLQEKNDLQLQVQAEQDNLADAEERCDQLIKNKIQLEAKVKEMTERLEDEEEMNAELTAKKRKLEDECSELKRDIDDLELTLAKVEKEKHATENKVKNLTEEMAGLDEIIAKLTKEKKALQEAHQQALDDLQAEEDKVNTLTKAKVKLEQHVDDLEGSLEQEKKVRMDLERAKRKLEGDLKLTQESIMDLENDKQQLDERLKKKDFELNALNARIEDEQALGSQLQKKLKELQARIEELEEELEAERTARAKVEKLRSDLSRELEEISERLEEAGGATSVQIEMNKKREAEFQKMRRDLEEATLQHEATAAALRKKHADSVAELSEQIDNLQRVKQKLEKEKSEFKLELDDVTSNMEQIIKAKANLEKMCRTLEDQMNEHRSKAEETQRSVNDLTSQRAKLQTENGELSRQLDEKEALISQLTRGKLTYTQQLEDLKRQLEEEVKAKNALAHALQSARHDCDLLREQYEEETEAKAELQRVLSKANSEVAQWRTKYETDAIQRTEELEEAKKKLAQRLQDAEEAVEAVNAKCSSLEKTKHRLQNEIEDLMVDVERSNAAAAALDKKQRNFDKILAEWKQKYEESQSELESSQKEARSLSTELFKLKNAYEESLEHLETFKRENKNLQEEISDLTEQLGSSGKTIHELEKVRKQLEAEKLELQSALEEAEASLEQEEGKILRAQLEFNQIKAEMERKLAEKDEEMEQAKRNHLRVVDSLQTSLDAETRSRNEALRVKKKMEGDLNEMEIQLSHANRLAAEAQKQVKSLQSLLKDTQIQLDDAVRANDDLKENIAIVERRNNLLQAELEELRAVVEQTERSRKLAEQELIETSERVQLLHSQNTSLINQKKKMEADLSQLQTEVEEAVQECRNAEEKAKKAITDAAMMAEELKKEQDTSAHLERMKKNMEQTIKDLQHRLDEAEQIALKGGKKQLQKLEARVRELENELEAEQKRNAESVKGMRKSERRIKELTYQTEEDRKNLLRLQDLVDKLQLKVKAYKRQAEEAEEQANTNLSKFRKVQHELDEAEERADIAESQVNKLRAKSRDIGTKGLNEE
- Sequence (P85100 whole entry partner): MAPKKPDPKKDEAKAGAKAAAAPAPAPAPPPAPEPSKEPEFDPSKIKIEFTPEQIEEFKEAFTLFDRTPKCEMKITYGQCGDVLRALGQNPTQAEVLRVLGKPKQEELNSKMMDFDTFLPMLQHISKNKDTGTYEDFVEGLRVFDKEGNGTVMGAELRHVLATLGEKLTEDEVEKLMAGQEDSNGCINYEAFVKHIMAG
- Sequence (Q3SZE5 whole entry partner): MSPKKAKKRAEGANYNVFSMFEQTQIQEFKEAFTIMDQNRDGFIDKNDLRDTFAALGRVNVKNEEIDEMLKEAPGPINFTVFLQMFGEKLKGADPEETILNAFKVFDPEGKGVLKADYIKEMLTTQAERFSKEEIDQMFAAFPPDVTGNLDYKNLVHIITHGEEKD
- test-description: Skinned bovine cardiac myofibril ATPase assay (PK/LDH-coupled)
- Type: biochemical
- setup-conditions: Ca2+ activating to 75% of maximal rate, concentration giving 15% inhibition
For each of the compounds below, state its CDMF75 IC15.
Numbers only, in nM.

Sample records with CDMF75 IC15:
> print(dat)
                                   compound  unit.info  observed.value
1  C=Cc1cccc(C(=O)N[C@@H]2CCc3cc(-c4noc(CC)n4)ccc32)c1         nM             300
2  O=C(N[C@@H]1COc2cc(-c3noc(C(F)F)n3)ccc21)c1cc(CO)ccn1 [Compound 708]         nM             600
3  Cc1cc(C(=O)NC2CCc3cc(-c4nc(C)no4)ccc32)ccn1 (centres unmarked)         nM            2500
4  Cc1nc(-c2ccc3c(c2)OC[C@@H]3NC(=O)c2oc(C)nc2C)no1         nM            6500
5  Cc1nc(-c2ccc3c(c2)OC[C@H]3NC(=O)c2cnn(C)c2C)no1         nM             800
6  CCc1nc(-c2ccc3c(c2)CC[C@H]3NC(=O)c2ccnc(Cl)c2)no1         nM             300
7  CCOC(=O)C(C)c1nc(-c2ccc3c(c2)CCC3NC(=O)c2cnc(C)o2)no1 (centres unmarked)         nM            5600

Please examine the following record next.
Please look at this compound and report its CDMF75 IC15: `CCc1nc(-c2ccc3c(c2)CC[C@H]3NC(=O)c2cn(CCCO)nc2C)no1`
700

====

- system: bovine cardiac myofibrils (full-length cardiac myosin ATPase in the native sarcomere) (Bos taurus (Bovine))
- test-description: Skinned bovine cardiac myofibril ATPase assay (PK/LDH-coupled)
- Format: biochemical
- setup-conditions: Ca2+ activating to 75% of maximal rate, read-out: CDMF75 IC50
I'd appreciate it if you could supply IC50 values for the items below.
Give bare numbers, in µM.

> print(dat)
                                   molecule  parameter.measured  observed.value
1  CCc1nc(-c2ccc3c(c2)CC[C@H]3NC(=O)c2cc(CO)ccc2C)no1 [Compound 651]                IC50            22.6

Take each entry in turn and give its IC50.
1. Cc1cc(C(=O)N[C@@H]2CCc3cc(-c4noc(C)n4)ccc32)ccn1 [Compound 31]
2. COCc1nc(-c2ccc3c(c2)CC[C@H]3NC(=O)c2ccnc(CO)c2)no1 [Compound 727]
3. Cn1nnc(C(=O)N[C@@H]2CCc3cc(-c4nc(C5CC5)no4)ccc32)n1 [Compound 260]

1: 3.6; 2: 4.1; 3: 1.4

====

- system: bovine cardiac myofibrils (full-length cardiac myosin ATPase in the native sarcomere) (Bos taurus (Bovine), UniProt Q9BE39)
- test-description: Skinned bovine cardiac myofibril ATPase assay (PK/LDH-coupled)
- Type: biochemical
- setup-conditions: Ca2+ activating to 75% of maximal rate, concentration giving 15% inhibition
Record YES whenever CDMF75 IC15 is at 2000 nM or higher; record NO when lower.

> print(dat)
                                   molecule  qualitative.label
1  Cc1nn(C)cc1C(=O)N[C@@H]1COc2cc(-c3noc(C(F)F)n3)ccc21                 NO
2  [2H]C([2H])([2H])c1nc(-c2ccc3c(c2)CC[C@H]3NC(=O)c2cn[nH]c2)no1                 NO
3  COCCn1cc(C(=O)N[C@@H]2CCc3cc(-c4noc(C)n4)ccc32)cn1                YES
4  Cc1nc(-c2ccc3c(c2)OCC3NC(=O)c2nnn(C)n2)no1 (stereo not drawn)                YES
5  Cc1nc(-c2ccc3c(c2)OC[C@H]3NC(=O)c2cnn(C)c2)no1                 NO

hey, is CDMF75 IC15 for this one >= 2000 nM? `CCc1nc(-c2ccc3c(c2)CC[C@H]3NC(=O)OC2CCCC2)no1`
NO

Has `Cc1noc(-c2ccc3c(c2)OC[C@H]3NC(=O)c2ccnn2C)n1` a recorded CDMF75 IC15 greater than or equal to 2000 nM?
NO

Please tell me: is the molecule Cc1nc(-c2ccc3c(c2)CCC3NC(=O)c2ncccc2C)no1 (stereo not drawn) at or over 2000 nM in terms of CDMF75 IC15?
YES

Item `COCCOC(=O)N[C@@H]1CCc2cc(-c3noc(C4CC4)n3)ccc21` with CDMF75 IC15 of 2000 nM or above?
NO

Hi, just wondering whether CC(CO)c1nc(-c2ccc3c(c2)CC[C@H]3NC(=O)c2ccnn2C)no1 (stereo partly drawn) shows CDMF75 IC15 of 2000 nM or higher.
YES
